Biological target: UniProt:Q13535
Sequence (Q13535 other isoform, or with tags, fused parts or gaps): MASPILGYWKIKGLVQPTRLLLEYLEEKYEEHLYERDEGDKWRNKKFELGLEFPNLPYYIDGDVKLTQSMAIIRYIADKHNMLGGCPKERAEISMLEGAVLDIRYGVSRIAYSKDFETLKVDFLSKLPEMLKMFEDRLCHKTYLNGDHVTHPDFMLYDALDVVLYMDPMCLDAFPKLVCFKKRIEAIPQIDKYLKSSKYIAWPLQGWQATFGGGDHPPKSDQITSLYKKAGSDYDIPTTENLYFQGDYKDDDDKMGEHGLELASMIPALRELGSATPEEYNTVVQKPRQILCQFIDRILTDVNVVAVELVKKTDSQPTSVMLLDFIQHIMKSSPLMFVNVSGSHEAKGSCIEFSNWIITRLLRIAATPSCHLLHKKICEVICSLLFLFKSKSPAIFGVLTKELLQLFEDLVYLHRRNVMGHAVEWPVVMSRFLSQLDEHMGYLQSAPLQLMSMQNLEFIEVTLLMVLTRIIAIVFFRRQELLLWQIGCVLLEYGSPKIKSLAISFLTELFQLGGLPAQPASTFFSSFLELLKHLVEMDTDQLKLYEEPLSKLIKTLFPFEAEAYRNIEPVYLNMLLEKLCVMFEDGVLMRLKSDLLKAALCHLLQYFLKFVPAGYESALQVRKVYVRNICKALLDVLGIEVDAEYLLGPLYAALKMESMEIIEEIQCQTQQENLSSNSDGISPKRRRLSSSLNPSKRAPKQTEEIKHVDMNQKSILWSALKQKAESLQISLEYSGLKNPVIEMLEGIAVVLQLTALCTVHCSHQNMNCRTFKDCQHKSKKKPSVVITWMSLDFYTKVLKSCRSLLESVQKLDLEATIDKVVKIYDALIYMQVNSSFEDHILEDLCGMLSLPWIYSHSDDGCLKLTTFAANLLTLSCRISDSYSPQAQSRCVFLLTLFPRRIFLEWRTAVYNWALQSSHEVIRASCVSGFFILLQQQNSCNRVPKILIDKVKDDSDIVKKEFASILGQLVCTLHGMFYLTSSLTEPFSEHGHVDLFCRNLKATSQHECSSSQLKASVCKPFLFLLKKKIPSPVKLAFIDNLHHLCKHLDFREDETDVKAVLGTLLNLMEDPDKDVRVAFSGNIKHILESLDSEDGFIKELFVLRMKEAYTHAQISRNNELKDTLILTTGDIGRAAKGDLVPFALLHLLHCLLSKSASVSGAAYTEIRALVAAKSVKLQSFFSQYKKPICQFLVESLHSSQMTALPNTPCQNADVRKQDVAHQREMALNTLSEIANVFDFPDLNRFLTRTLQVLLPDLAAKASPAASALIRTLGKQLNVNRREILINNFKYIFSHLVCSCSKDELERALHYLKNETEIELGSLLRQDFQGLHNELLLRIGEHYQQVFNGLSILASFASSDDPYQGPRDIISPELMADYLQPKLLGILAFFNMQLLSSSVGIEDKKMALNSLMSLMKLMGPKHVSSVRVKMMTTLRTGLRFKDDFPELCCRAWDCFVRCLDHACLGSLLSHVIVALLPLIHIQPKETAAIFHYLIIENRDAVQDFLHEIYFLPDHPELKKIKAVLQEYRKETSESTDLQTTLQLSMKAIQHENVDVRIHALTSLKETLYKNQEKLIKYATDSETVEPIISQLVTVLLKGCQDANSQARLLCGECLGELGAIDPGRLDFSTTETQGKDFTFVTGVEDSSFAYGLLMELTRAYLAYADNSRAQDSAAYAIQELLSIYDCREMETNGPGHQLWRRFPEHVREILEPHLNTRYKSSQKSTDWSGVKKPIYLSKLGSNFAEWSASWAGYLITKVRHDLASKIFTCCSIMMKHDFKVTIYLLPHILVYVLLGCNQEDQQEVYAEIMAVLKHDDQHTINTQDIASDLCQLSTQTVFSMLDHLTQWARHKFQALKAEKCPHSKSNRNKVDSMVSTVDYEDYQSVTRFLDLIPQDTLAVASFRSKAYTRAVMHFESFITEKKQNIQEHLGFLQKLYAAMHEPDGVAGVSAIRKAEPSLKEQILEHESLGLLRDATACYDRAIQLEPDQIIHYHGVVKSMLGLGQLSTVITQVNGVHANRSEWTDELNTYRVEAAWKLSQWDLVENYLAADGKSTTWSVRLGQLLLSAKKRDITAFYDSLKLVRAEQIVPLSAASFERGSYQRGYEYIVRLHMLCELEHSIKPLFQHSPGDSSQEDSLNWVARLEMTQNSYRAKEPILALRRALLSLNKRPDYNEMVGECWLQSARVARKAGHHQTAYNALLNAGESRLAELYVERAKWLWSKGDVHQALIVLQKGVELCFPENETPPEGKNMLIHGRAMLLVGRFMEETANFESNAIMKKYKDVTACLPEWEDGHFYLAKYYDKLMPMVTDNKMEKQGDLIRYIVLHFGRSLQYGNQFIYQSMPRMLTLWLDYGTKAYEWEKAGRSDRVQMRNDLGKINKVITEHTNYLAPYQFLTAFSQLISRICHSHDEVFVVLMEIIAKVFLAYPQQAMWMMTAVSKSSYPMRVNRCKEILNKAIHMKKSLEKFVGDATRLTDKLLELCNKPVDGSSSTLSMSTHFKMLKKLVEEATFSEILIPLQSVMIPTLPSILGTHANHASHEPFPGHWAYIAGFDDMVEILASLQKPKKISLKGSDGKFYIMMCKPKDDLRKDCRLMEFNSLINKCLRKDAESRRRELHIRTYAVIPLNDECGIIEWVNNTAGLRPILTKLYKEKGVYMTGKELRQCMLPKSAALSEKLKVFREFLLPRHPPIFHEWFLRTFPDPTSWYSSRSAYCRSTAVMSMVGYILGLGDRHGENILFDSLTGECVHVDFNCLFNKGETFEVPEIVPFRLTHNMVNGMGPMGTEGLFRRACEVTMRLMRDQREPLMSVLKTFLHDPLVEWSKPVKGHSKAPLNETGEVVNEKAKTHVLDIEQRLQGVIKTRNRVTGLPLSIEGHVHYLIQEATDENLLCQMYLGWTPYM
Sequence (Q8WXE1 other isoform, or with tags, fused parts or gaps partner): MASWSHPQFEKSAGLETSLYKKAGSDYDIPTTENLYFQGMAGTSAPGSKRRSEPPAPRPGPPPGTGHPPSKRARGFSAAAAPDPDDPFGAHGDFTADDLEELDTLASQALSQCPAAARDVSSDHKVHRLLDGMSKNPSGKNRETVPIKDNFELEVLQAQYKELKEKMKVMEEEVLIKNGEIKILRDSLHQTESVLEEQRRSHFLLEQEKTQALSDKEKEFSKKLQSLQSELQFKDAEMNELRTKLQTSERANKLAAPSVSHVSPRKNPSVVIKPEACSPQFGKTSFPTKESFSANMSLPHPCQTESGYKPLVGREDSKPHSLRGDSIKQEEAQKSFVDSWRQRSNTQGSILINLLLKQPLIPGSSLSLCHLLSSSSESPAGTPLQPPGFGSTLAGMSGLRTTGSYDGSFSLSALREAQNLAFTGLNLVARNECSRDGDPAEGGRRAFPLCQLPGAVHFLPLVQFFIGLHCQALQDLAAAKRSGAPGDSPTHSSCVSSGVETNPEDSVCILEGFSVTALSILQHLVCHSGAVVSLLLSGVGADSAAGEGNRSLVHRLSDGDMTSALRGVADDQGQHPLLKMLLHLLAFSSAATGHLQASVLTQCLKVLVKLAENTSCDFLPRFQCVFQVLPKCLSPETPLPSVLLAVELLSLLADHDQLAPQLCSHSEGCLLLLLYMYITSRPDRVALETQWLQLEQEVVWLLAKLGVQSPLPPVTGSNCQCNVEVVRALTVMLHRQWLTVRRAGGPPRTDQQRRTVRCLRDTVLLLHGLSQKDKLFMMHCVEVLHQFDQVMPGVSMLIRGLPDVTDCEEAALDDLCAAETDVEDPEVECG
Assay: Binding assay ATR (TR-FRET tracer displacement)
Conditions: tracer A, TR-FRET; read-out: ATR binding (tracer A) IC50
measurementKind: log10(IC50) (log10 of the value in nM)
# log10 transformed; quantity=IC50; unit=nM

Worked examples follow.
CN(CC(C)(C)C)c1cc(N2CCOCC2)nc2c(-c3ccn[nH]3)nccc12 :: 1.38
C[C@@H]1COCCN1c1cc(-c2ccn(C)c2)c2ccnc(-c3ccn[nH]3)c2n1 :: 1.63
C[C@@H]1COCCN1c1cc(C2=CCN(C)CC2)c2ccnc(-c3ccn[nH]3)c2n1 :: 1.56

Quick check: log10(IC50) of C[C@@H]1COCCN1c1cc(-c2cccnc2N)c2ccnc(-c3ccn[nH]3)c2n1 ? 1.80

Fill blank: measured log10(IC50) of the compound C[C@@H]1COCCN1c1cc(-c2cnc(F)cc2F)c2ccnc(-c3ccn[nH]3)c2n1 is ____. 1.33

Please give the measured log10(IC50) for this compound: COc1ccc(F)c(-c2cc(N3CCOCC3)nc3c(-c4ccn[nH]4)nccc23)c1 2.01

Name the recorded log10(IC50) for C[C@@H]1COCCN1c1cc(-c2cncn2Cc2ccccc2)c2ccnc(-c3ccn[nH]3)c2n1 . 0.95

State the recorded log10(IC50) for this entry: Cc1cc(COc2cc(N3CCOCC3)nc3c(-c4ccn[nH]4)nccc23)on1 2.21
